# study system: T1, cyno CCL17 (Macaca fascicularis (cyno), UniProt Q8HYP9 24-94 (rhesus entry))
# T1 construct: Biotinylated in the Fab ELISAs; also called cCCL17; cCCL-17
# T1 sequence: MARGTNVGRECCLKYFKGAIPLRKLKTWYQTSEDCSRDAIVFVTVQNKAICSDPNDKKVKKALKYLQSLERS
# assay remarks: solution equilibrium affinity (MSD-SEA), IgG1
experimental endpoint: pKd
Give bare numbers, as −log10 of the molar value.

{"columns": ["binder", "pKd"],
 "data": [
  ["C17B258 (antibody, IgG1, V domains shown, Expressed as IgG1; Light chain N50D (Kabat) variant of C17B234) VH: EVQLVQSGAEVKKPGESLKISCKGSGYSFTSYWIGWVRQMPGKGLEWMGIIDPSDSDTRYSPSFQGQVTISADKSISTAYLQWSSLKASDTAMYYCARVGPADVWDSFDYWGQGTLVTVSS VL: DIVMTQSPDSLAVSLGERATINCKSSQSVLLSFDNINKLAWYQQKPGQPPKLLIYDASTRESGVPDRFSGSGSGTDFTLTISSLQAEDVAVYYCQQFYSVPSTFGQGTKVEIK", 10.38],
  ["C17B263 (antibody, IgG1, V domains shown, Expressed as IgG1; Light chain N50T (Kabat) variant of C17B234) VH: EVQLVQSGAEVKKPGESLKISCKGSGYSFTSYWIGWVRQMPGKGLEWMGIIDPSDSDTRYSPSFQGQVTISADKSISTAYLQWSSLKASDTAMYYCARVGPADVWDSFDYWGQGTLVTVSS VL: DIVMTQSPDSLAVSLGERATINCKSSQSVLLSFDNINKLAWYQQKPGQPPKLLIYTASTRESGVPDRFSGSGSGTDFTLTISSLQAEDVAVYYCQQFYSVPSTFGQGTKVEIK", 10.12],
  ["C17B293 (antibody, IgG1, V domains shown, Expressed as IgG1; Heavy chain S100cA (Kabat) paired with the light chain of C17B258; also called C17M293) VH: EVQLVQSGAEVKKPGESLKISCKGSGYSFTSYWIGWVRQMPGKGLEWMGIIDPSDSDTRYSPSFQGQVTISADKSISTAYLQWSSLKASDTAMYYCARVGPADVWDAFDYWGQGTLVTVSS VL: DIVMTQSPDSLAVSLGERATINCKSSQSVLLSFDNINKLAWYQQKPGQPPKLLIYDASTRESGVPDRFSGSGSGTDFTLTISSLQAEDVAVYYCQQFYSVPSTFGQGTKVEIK", 10.41],
  ["C17B294 (antibody, IgG1, V domains shown, Expressed as IgG1; Heavy chain S100cT (Kabat) paired with the light chain of C17B258) VH: EVQLVQSGAEVKKPGESLKISCKGSGYSFTSYWIGWVRQMPGKGLEWMGIIDPSDSDTRYSPSFQGQVTISADKSISTAYLQWSSLKASDTAMYYCARVGPADVWDTFDYWGQGTLVTVSS VL: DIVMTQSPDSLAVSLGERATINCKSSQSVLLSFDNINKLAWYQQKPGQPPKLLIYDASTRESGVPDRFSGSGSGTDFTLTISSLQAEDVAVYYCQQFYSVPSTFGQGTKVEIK", 10.66],
  ["C17B257 (antibody, IgG1, V domains shown, Expressed as IgG1; Light chain N50A (Kabat) variant of C17B234) VH: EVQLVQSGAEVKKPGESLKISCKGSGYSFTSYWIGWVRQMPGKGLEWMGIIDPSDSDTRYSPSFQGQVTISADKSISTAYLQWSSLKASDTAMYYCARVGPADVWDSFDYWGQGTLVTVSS VL: DIVMTQSPDSLAVSLGERATINCKSSQSVLLSFDNINKLAWYQQKPGQPPKLLIYAASTRESGVPDRFSGSGSGTDFTLTISSLQAEDVAVYYCQQFYSVPSTFGQGTKVEIK", 10.18]
]}

Request: For the binder C17B262 (antibody, IgG1, V domains shown, Expressed as IgG1; Light chain N50S (Kabat) variant of C17B234) VH: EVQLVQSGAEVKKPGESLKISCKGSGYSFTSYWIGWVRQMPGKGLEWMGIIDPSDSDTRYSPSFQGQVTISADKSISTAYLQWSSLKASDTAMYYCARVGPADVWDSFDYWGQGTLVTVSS VL: DIVMTQSPDSLAVSLGERATINCKSSQSVLLSFDNINKLAWYQQKPGQPPKLLIYSASTRESGVPDRFSGSGSGTDFTLTISSLQAEDVAVYYCQQFYSVPSTFGQGTKVEIK , what pKd is on record?
Result: 10.26
